target: synthetic fragment of the mouse TLR-2 extracellular domain (mouse)
METRIC NAME: pKd
// returns pKd (minus log10 of molar concentration), number only

Identify measured pKd corresponding to LMDKNLYGYTDEEIFKAS (modifications not checked) [LcrV193-210 synthetic peptide] 9.46
